Measured values drawn from PubChem BioAssay AID493033 for this set.

Kindly state inhibition for each of the entries shown.
Biological target: Salicylate synthase (Mycobacterium tuberculosis (strain CDC 1551 / Oshkosh)) (UniProt P9WFX0)
Sequence (P9WFX0 whole entry, looked up): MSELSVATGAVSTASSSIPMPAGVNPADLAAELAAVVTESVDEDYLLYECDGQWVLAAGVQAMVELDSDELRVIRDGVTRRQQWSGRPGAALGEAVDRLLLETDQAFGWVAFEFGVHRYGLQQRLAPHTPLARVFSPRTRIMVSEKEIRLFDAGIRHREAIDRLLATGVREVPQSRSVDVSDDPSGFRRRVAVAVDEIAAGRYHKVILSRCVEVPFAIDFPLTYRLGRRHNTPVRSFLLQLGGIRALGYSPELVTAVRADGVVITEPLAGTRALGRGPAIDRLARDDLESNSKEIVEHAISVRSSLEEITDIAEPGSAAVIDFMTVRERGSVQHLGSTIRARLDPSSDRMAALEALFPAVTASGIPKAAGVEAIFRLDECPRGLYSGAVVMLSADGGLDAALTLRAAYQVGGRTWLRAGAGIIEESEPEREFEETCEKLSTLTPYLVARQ
Assay: inhibitors of M. tuberculosis MbtI – biochemical, fluorescence intensity, primary screen (AID 493033)
Settings: purified MbtI enzyme, fluorescence intensity read-out, stronger effect = higher value, concentration not given here
Among all 100,000 compounds or so, about 930 (0.93%) were called active. Shown is part of a subset that was picked to be rich in actives.
One number for each entry, in %.

# example entries with known answers
molecular string | inhibition (%)
CC(C)CN1C(=O)C=CC1=O | 80.8
COc1cccc(N2C(=O)/C(=C/c3ccsc3)C(=O)NC2=S)c1 | 29.9
Cc1noc(C)c1C(=O)c1c(C)[nH]n(-c2ccccc2)c1=O | 3.5
CCOC(=O)c1c(N)sc2c1CC(C)(C)OC2 | 64.8
O=C1NC(=S)N(c2ccc(Br)cc2)C(=O)/C1=C/c1ccsc1 | 55.9
Cc1ccc(Sc2c(C)[nH]n(-c3ccccc3)c2=O)cc1 | -4.4

API: the following record is the query input.
Qu. Item CC(C)Cn1nccc1N has what recorded inhibition?
Ans. -12
